tested.target: ALK3 (Homo sapiens, UniProt P36894)
Sequence (P36894 24-532): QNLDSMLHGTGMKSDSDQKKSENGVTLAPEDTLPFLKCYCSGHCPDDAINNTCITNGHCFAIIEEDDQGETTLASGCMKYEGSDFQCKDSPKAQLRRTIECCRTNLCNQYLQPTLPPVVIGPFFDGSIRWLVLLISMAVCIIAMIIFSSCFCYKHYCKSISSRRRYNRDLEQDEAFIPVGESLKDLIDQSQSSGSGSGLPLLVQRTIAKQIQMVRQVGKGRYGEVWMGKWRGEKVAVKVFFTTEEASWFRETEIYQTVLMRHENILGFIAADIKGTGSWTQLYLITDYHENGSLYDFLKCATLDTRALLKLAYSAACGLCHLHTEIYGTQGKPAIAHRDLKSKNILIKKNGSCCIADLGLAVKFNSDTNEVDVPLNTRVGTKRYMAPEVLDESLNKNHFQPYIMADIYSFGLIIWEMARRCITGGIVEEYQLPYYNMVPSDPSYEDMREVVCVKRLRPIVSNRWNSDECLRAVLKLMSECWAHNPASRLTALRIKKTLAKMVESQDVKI
protocol.notes: TR-FRET enzymatic ALK kinase assay, ALK3
recorded.endpoint: IC50 (µM)

compound="N=C(N)c1ccc(-c2cnn3cc(-c4ccc(N5CCNCC5)cc4)cnc23)c2ccccc12 [Compound 16]" result_number=4.93

[A] O=[S+]([O-])(c1cccc(-c2cnn3cc(-c4ccc(CCN5CCCCC5)cc4)cnc23)c1)C1CC1 [Compound 112]
[B] C[C@H](O)c1cccc(-c2cnn3cc(-c4ccc(OC5(CN6CCCC6)CC5)cc4)cnc23)c1 [Compound 198]
Q: Quick check, higher IC50 between A and B ? Your answer should be the label of the entry you select.
Ans: A
(A: 8.1 µM, B: 1.2 µM)

---

tested.target: ALK4 (Homo sapiens)
Sequence (P36896 24-505): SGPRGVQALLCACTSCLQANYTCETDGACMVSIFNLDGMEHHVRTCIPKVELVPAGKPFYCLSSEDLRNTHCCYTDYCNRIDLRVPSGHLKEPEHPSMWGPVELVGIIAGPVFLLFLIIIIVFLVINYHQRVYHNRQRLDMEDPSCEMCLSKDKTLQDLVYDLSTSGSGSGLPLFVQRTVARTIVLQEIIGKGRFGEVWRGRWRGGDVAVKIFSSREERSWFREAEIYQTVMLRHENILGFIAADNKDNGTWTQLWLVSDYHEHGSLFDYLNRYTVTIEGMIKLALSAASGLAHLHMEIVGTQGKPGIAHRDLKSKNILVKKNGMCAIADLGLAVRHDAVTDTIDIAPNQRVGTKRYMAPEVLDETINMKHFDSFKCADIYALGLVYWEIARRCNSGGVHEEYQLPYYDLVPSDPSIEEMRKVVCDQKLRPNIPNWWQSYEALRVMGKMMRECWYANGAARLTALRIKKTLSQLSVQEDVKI
protocol.notes: TR-FRET enzymatic ALK kinase assay, ALK4
recorded.endpoint: IC50

The following compounds have reported results that may help.
compound=C[C@@H]1CNC[C@H](C)N1c1ccc(-c2cnc3c(-c4ccc(N)c5ccccc45)cnn3c2)cc1 recorded_endpoint=IC50 result="4.1 µM"
compound="CS(=O)(=O)c1cccc(-c2cnn3cc(-c4ccc(CCN5CCCC(O)C5)cc4)cnc23)c1 (stereo not drawn)" recorded_endpoint=IC50 result="> 10 µM"
compound=CC(=O)c1cccc2c(-c3cnn4cc(-c5ccc(N6[C@H](C)CNC[C@@H]6C)cc5)cnc34)cccc12 recorded_endpoint=IC50 result="1.45 µM"

Q: I'd like to know its IC50. The compound in question is CC(O)c1cccc(-c2cnn3cc(-c4ccc(OC5(CN6CCCCC6)CC5)cc4)cnc23)c1 (stereo not drawn)
Ans: > 10 µM

Q: Also "c1ccc(-c2cnn3cc(-c4ccc(CCN5CCCCC5)cc4)cnc23)cc1" ?
Ans: > 10 µM

Q: // query: CC(O)c1cccc(-c2cnn3cc(-c4ccc(CCN5CCNCC5)cc4)cnc23)c1 (stereo not drawn)
Ans: > 10 µM

---

tested.target: ALK1 (Homo sapiens)
Sequence (P37023 22-503): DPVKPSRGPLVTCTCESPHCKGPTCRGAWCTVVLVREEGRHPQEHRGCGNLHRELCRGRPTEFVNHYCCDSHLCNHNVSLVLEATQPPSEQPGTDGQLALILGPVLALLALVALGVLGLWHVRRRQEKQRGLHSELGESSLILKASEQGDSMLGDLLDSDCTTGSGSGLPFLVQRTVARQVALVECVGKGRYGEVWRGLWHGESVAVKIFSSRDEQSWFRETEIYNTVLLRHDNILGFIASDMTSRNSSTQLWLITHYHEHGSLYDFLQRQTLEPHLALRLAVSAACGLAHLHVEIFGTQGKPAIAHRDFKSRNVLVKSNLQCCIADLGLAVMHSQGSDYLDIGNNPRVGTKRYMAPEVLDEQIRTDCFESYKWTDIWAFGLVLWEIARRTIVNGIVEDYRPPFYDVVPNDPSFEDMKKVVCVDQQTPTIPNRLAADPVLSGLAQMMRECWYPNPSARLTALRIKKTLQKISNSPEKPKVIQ
protocol.notes: TR-FRET enzymatic ALK kinase assay, ALK1
recorded.endpoint: IC50 (nM)

Here is how some compounds turned out for IC50.
compound=C[C@@H]1CNC[C@H](C)N1c1ccc(-c2cnc3c(-c4cccc5c(CO)cccc45)cnn3c2)cc1 tested_target="ALK1 (Homo sapiens)" result_number=22
compound=CN1CCN(c2ccc(-c3cnc4c(-c5ccc(S(N)(=O)=O)c6ccccc56)cnn4c3)cn2)CC1 tested_target="ALK1 (Homo sapiens)" result_number=3900
compound=C[C@H](O)c1cccc(-c2cnn3cc(-c4ccc(OC5(CN6C7CCC6CC7)CC5)cc4)cnc23)c1 tested_target="ALK1 (Homo sapiens)" result_number=310

[I] CS(=O)(=O)c1cccc(-c2cnn3cc(-c4ccc(CCn5ccnc5)cc4)cnc23)c1
[II] CS(=O)(=O)c1cccc(-c2cnn3cc(-c4ccc(C5(N)CC5)cc4)cnc23)c1
[III] N/C(=N/O)c1ccc(-c2cnn3cc(-c4ccc(N5CCNCC5)cc4)cnc23)c2ccccc12
Q: Hi! Can you put these in order of IC50, lowest number first? Provide your answer as the labels ordered per the instruction.
Ans: II, I, III
(II: 460 nM, I: 670 nM, III: 1480 nM)

[P] CC(O)c1cccc(-c2cnn3cc(-c4ccc(OC5(CN6CCCCC6)CC5)cc4)cnc23)c1 (centres unmarked)
[Q] CC(O)c1cccc(-c2cnn3cc(-c4ccc(C5CCNC5)cc4)cnc23)c1 (centres unmarked)
Q: Between the two listed entries P and Q , which has its IC50 at the higher number? Mark your selection by writing its label.
Ans: Q

---

# reported pIC50; entries follow
tested.target: ALK6 (Homo sapiens)
Sequence (O00238 14-502): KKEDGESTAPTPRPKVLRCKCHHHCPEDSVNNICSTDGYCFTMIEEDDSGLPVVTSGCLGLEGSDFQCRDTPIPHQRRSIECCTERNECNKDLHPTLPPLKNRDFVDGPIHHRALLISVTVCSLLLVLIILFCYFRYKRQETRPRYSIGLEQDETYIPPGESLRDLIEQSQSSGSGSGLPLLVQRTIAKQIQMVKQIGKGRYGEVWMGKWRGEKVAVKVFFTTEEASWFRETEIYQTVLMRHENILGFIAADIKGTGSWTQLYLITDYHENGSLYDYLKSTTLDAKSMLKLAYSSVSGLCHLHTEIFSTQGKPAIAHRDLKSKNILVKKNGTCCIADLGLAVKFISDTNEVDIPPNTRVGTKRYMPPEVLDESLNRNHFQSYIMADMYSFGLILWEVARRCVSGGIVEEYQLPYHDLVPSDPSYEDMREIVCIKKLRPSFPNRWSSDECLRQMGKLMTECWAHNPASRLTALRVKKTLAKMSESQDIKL
protocol.notes: TR-FRET enzymatic ALK kinase assay, ALK6
pIC50: −log10 of the molar value. Structures can show the parent of a compound that is named as a salt.

Q: Please report the recorded pIC50 for CC(N)c1ccc(-c2cnc3c(-c4cccc(C(C)O)c4)cnn3c2)cc1 (centres unmarked) .
Ans: 5.09

Q: Could you do the same for "CS(=O)(=O)c1cccc(-c2cnn3cc(-c4ccc(C(F)(F)CN5CCCC5)cc4)cnc23)c1" , please?
Ans: < 5.00

Q: And what about the molecule CS(=O)(=O)c1cccc(-c2cnn3cc(-c4ccc(CCN5CCC(O)C5)cc4)cnc23)c1 (centres unmarked) ?
Ans: < 5.00

Q: Param item: CC(O)c1cccc(-c2cnn3cc(-c4ccc(N5[C@H](C)CNC[C@@H]5C)cc4)cnc23)c1 (some centres unmarked)
Ans: 5.27

Q: Now try CS(=O)(=O)c1cccc(-c2cnn3cc(-c4ccc(CC5CCNCC5)cc4)cnc23)c1 [Compound 126, TFA] .
Ans: < 5.00

Q: # repeat for CC(O)c1cccc(-c2cnn3cc(-c4ccc(CN5CCCCC5)cc4)cnc23)c1 (centres unmarked)
Ans: < 5.00

Q: Follow-up entry: CC(O)c1cccc(-c2cnn3cc(-c4ccc(CCN5CCOCC5)cc4)cnc23)c1 (centres unmarked)
Ans: < 5.00

Q: Input "C[C@H](O)c1cccc(-c2cnn3cc(-c4ccc(OCCN5CCCCC5)cc4)cnc23)c1"
Ans: < 5.00

---

tested.target: ALK5 (Homo sapiens)
Sequence (P36897 34-503): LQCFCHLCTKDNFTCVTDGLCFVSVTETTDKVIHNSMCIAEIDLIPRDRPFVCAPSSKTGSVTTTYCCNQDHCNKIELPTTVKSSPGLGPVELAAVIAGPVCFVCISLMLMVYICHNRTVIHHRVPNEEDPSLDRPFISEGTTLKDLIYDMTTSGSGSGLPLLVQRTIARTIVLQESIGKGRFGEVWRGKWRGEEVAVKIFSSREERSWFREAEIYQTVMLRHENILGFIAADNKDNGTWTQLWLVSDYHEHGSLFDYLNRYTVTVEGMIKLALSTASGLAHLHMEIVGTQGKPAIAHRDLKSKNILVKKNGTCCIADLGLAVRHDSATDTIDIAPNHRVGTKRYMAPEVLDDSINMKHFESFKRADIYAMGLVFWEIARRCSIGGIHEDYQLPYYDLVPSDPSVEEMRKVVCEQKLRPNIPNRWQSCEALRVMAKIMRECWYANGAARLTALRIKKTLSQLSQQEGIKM
protocol.notes: TR-FRET enzymatic ALK kinase assay, ALK5
recorded.endpoint: IC50

Q: Any idea what IC50 came out for C[S+](=O)([O-])c1cccc(-c2cnn3cc(-c4ccc(OC5(CN6CCCC(O)C6)CC5)cc4)cnc23)c1 (stereo not drawn) on ALK5 (Homo sapiens)?
Ans: > 10 µM

Q: Please give the result for "NS(=O)(=O)c1ccc(-c2cnn3cc(-c4ccc(OC(F)(F)CN5CCCCC5)cc4)cnc23)c2ccccc12" too.
Ans: > 10 µM

Q: # repeat for "NC(=O)c1cccc2c(-c3cnn4cc(-c5ccc(N6C[C@@H]7C[C@H]6CN7)cc5)cnc34)cccc12"
Ans: 21.5 µM

Q: Would you mind doing "CS(=O)(=O)c1cccc(-c2cnn3cc(-c4ccc(OC5(CN6CCC(O)CC6)CC5)cc4)cnc23)c1" as well?
Ans: > 10 µM

Q: Then this molecule: NC(c1cccc(-c2cnn3cc(-c4ccc(OCCN5CCCC5)cc4)cnc23)c1)C(F)(F)F (stereo not drawn)
Ans: > 10 µM

Q: Do the same for "N/C(=N/O)c1ccc(-c2cnn3cc(-c4ccc(N5CCNCC5)cc4)cnc23)c2ccccc12" please
Ans: 17.5 µM

Q: Okay, and CC(O)c1ccc(-c2cnn3cc(-c4ccc(N5[C@H](C)CNC[C@@H]5C)cc4)cnc23)c2ccccc12 (stereo partly drawn) ?
Ans: 5.37 µM

Q: Another molecule to check: "CN1CCC(c2ccc(-c3cnc4c(-c5cccc(S(C)(=O)=O)c5)cnn4c3)cc2)CC1"
Ans: > 10 µM

---

tested.target: ALK3 (Homo sapiens, UniProt P36894)
protocol.notes: TR-FRET enzymatic ALK kinase assay, ALK3
pIC50: −log10 of the molar value.
recorded.endpoint: pIC50

Here's what some known entries look like.
compound="CS(=O)(=O)c1cccc(-c2cnn3cc(-c4ccc(CCN5CCCC(O)C5)cc4)cnc23)c1 (stereo not shown)" recorded_endpoint=pIC50 result_number=5.23
compound=CNC(=O)c1ccc(-c2cnn3cc(-c4ccc(N5CCNCC5)cc4)cnc23)c2ccccc12 recorded_endpoint=pIC50 result_number=4.74

[I] CC(O)c1ccc(-c2cnn3cc(-c4ccc(N5[C@H](C)CNC[C@@H]5C)cc4)cnc23)c2ccccc12 (stereo partly shown)
[II] N/C(=N/O)c1ccc(-c2cnn3cc(-c4ccc(N5CCNCC5)cc4)cnc23)cc1
Q: Of I versus II , which is the one with smaller reported pIC50? Please identify the chosen entry by its label.
Ans: II
(II: 6.06, I: 7.08)

---

tested.target: ALK6 (Homo sapiens)
protocol.notes: TR-FRET enzymatic ALK kinase assay, ALK6
recorded.endpoint: IC50 (µM)

compound="CC[S+](=O)([O-])c1cccc(-c2cnn3cc(-c4ccc(N5[C@H](C)CNC[C@@H]5C)cc4)cnc23)c1 [Compound 104]" result_number=7.4
compound="C[C@H](O)c1cccc(-c2cnn3cc(-c4ccc(OC5(CN6CCCCC6)CC5)cc4)cnc23)c1 [Compound 199]" result_number=9.8
compound="C[C@@H](O)c1cccc(-c2cnn3cc(-c4ccc(OC5(CN6CCCCC6)CC5)cc4)cnc23)c1 [Compound 152]" result_number=5.6
compound="O=[S+]([O-])(c1cccc(-c2cnn3cc(-c4ccc(CN5CCCCC5)cc4)cnc23)c1)C1CC1 [Compound 125]" result_number=8.4

[I] C[C@@H]1CNC[C@H](C)N1c1ccc(-c2cnc3c(-c4cccc5ccccc45)cnn3c2)cc1 [Compound 31]
[II] CC(O)c1cccc(-c2cnn3cc(-c4ccc(OC5(CN6CCCC6)CC5)cc4)cnc23)c1 (stereo not drawn) [Compound 167]
Q: Could you check which of I and II has a smaller value for IC50? Indicate your choice by writing its label.
Ans: I
(I: 1.08 µM, II: 9.3 µM)

[A] CC(=O)c1ccc(-c2cnn3cc(-c4ccc(N5[C@H](C)CNC[C@@H]5C)cc4)cnc23)c2ccccc12 [Compound 27]
[B] CC(O)c1cccc(-c2cnn3cc(-c4ccc(CN5CCCC5)cc4)cnc23)c1 (stereo not drawn) [Compound 165]
[C] CC(O)c1cccc(-c2cnn3cc(-c4ccc(OC5(CN6CCCCC6)CC5)cc4)cnc23)c1 (stereo not drawn) [Compound 143]
[D] N=C(N)c1ccc(-c2cnn3cc(-c4ccc(N5CCNCC5)cc4)cnc23)c2ccccc12 [Compound 16]
[E] NC(=O)c1ccc(-c2cnn3cc(-c4ccc(N5CCNCC5)cc4)cnc23)c2ccccc12 [Compound 2]
Q: Please list the entries, largest IC50 first. Reply with the item labels sorted in the order that was asked for.
Ans: D, C, B, E, A

[I] C[C@@H]1CNC[C@H](C)N1c1ccc(-c2cnc3c(-c4cccc(S(C)(=O)=O)c4)cnn3c2)cc1 [Compound 82]
[II] C[C@H](O)c1cccc(-c2cnn3cc(-c4ccc(OCCN5CCCC5)cc4)cnc23)c1 [Compound 200]
Q: In the pair I and II , the larger recorded IC50 belongs to which? Answer with the label corresponding to your selection.
Ans: I
(I: 7.9 µM, II: 2.3 µM)
